- target.desc: MAP4K1 (HPK1) (Homo sapiens (Human))
- experiment.description: MAP4K1 (HPK1) biochemical enzymatic activity, electrophoretic mobility shift (EZReader 2), ATP at APPKM (26 μM)
- assay.setup: numeric value
pIC50: −log10 of the molar value.
Could you label it 1 if measured pIC50 is 9 or higher, and -1 otherwise?

INSERT INTO measurements (compound, class_label) VALUES
  ('CNc1ncc(C(C)(C)N)c2cc(Nc3cnc(C#N)c(C(C)C)n3)ncc12', -1),
  ('CC1(C)Cc2nc(Nc3cc4c(C(C)(C)NC5COC5)cnc(OC5CC5)c4cn3)ccc2C(=O)O1', -1),
  ('C[C@@H]1OC(=O)c2ccc(Nc3cc4c(C(C)(C)N)cnc(OCC5(F)CC5)c4cn3)nc2[C@H]1C', 1),
  ('CNc1ncc(C(C)(C)N)c2cc(Nc3ccc4c(n3)CC(C)(C)OC4=O)ncc12', 1),
  ('C[C@@H]1c2nc(Nc3cc4c([C@](C)(N)C5CC5)cnc(OC5CC5)c4cn3)ccc2C(=O)O[C@@H]1C (single isomer, unassigned)', 1);

====

Recorded IC50 for the following compounds
- target.desc: MAP4K1 (HPK1) (Homo sapiens (Human), UniProt Q92918)
- Sequence (Q92918 whole entry): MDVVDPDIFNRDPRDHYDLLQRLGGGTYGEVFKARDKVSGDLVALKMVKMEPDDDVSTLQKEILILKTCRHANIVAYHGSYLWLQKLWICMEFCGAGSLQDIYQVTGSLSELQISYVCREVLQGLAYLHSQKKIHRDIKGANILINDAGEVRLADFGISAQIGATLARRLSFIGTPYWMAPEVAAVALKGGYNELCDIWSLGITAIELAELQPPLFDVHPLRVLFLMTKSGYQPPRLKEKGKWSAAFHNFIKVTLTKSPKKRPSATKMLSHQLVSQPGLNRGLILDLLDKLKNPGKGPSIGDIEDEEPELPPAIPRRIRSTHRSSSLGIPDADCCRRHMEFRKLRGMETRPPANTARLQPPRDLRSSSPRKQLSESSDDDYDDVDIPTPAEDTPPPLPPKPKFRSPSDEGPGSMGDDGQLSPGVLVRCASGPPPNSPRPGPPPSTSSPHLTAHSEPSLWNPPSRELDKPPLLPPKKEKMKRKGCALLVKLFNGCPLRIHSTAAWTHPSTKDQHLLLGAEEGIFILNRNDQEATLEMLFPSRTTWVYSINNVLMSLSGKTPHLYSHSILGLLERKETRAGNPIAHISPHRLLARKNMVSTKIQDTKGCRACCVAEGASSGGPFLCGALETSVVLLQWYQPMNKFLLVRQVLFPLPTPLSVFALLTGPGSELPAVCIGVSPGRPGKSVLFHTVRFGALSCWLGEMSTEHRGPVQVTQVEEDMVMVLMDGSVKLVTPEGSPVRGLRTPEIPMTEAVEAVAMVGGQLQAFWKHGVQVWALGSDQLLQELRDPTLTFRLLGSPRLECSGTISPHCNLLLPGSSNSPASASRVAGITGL
- experiment.description: MAP4K1 (HPK1) biochemical enzymatic activity, electrophoretic mobility shift (EZReader 2), ATP at APPKM (26 μM)
- assay.setup: class designation
attribute.measured: IC50

INSERT INTO results (smiles_code, attribute_measured, value_measured) VALUES
  ('CC[C@]1(C)OC(=O)c2ccc(Nc3cc4c(C(C)(C)N)cnc(OC5CC5)c4cn3)nc21', 'IC50', '0.31 to 1 nM'),
  ('CC[C@@](C)(N)c1cnc(OC2(C)CC2)c2cnc(Nc3ccc4c(n3)[C@@H](C)[C@@H](C)OC4=O)cc12', 'IC50', '1.1 to 10 nM'),
  ('CC[C@H](C)c1nc(Nc2cc3c(C(C)(C)N)cnc(OC)c3cn2)cnc1C#N', 'IC50', '0.31 to 1 nM'),
  ('CC[C@@H](C)c1nc(Nc2cc3c(C(C)(C)N)cnc(OC)c3cn2)ccc1C#N', 'IC50', '0.31 to 1 nM');

====

- target.desc: MAP4K1 (HPK1) (Homo sapiens (Human), UniProt Q92918)
- experiment.description: MAP4K1 (HPK1) biochemical enzymatic activity, electrophoretic mobility shift (EZReader 2), ATP at APPKM (26 μM)
- assay.setup: class designation
attribute.measured: IC50

INSERT INTO assay_data (compound, value_measured) VALUES
  ('CC(C)Oc1ncc(C(C)(C)N)c2cc(Nc3ccc4c(n3)CC(C)(C)OC4=O)ncc12', '0.31 to 1 nM'),
  ('COc1ccc(C(C)(C)N)c2cc(Nc3ccnc(C(C)(C)F)n3)ncc12', '0.31 to 1 nM'),
  ('CC(C)(N)c1cnc(OCC(F)(F)F)c2cnc(Nc3ccnc([C@@H]4CCC[C@@H](O)C4)n3)cc12', '0.31 to 1 nM'),
  ('CC[C@@H](N)c1cnc(OC2(C)CC2)c2cnc(Nc3ccc4c(n3)[C@@H](C)C(C)(C)OC4=O)cc12', '0.31 to 1 nM'),
  ('CCCOc1ncc([C@](C)(N)CC)c2cc(Nc3ccc4c(n3)CC(C)(C)OC4=O)ncc12', '0.31 to 1 nM'),
  ('C[C@@H](Oc1ncc(C(C)(C)N)c2cc(Nc3ccc4c(n3)CC(C)(C)OC4=O)ncc12)C(F)(F)F (single isomer, unassigned)', '1.1 to 10 nM'),
  ('CC1(C)CCc2nc(Nc3cc4c(C(C)(C)N)cnc(OC5CC5)c4cn3)ccc2C(=O)O1', '1.1 to 10 nM'),
  ('COC[C@@](C)(N)c1cnc(C)c2cnc(Nc3ccc4c(n3)[C@@H](C)C(C)(C)OC4=O)cc12', '< 0.3 nM'),
  ('C[C@@H]1OC(=O)c2ccc(Nc3cc4c([C@@](C)(N)C5CC5)cnc(O[C@H]5C[C@H](O)C5)c4cn3)nc2[C@H]1C (relative stereo)', '< 0.3 nM'),
  ('CC[C@@](C)(N)c1cnc(OC2(C)CC2)c2cnc(Nc3ccc4c(n3)[C@@H](C)[C@H](C)OC4=O)cc12', '1.1 to 10 nM'),
  ('CC1(Oc2ncc([C@](C)(N)C3CC3)c3cc(Nc4ccc5c(n4)C(C)(C)COC5=O)ncc23)CC1', '0.31 to 1 nM'),
  ('CC1(C)Cc2nc(Nc3cc4c(C(C)(C)N)ccc(Cl)c4cn3)ccc2C(=O)O1', '< 0.3 nM'),
  ('C[C@@H]1OC(=O)c2ccc(Nc3cc4c(C(C)(C)N)cnc(NC5CC5)c4cn3)nc2[C@H]1C', '< 0.3 nM'),
  ('C[C@@H]1OC(=O)c2ccc(Nc3cc4c(C(C)(C)N)cnc(OC5(C)CC5)c4cn3)nc2C1(C)C', '0.31 to 1 nM'),
  ('COc1ncc(C(C)(C)N)c2cc(Nc3ccc4c(n3)C(C)(C)OC4=O)ncc12', '0.31 to 1 nM');

====

- target.desc: MAP4K1 (HPK1) (Homo sapiens (Human))
- experiment.description: MAP4K1 (HPK1) biochemical enzymatic activity, electrophoretic mobility shift (EZReader 2), ATP at APPKM (26 μM)
- assay.setup: class designation
attribute.measured: IC50

INSERT INTO measurements (compound, target_desc, attribute_measured, value_measured) VALUES
  ('CCOc1ncc(C(C)(C)N)c2cc(Nc3ccc4c(n3)C(C)(C)OC4=O)ncc12', 'MAP4K1 (HPK1) (Homo sapiens (Human))', 'IC50', '0.31 to 1 nM'),
  ('CCCOc1ncc([C@@](C)(N)CC)c2cc(Nc3ccc4c(n3)[C@@H](C)[C@H](C)OC4=O)ncc12', 'MAP4K1 (HPK1) (Homo sapiens (Human))', 'IC50', '1.1 to 10 nM'),
  ('CC(C)(N)c1cnc(OC2CC2)c2cnc(Nc3ccc4c(n3)C3(CC3)C(C)(C)OC4=O)cc12', 'MAP4K1 (HPK1) (Homo sapiens (Human))', 'IC50', '< 0.3 nM'),
  ('CC[C@@]1(C)OC(=O)c2ccc(Nc3cc4c(C(C)(C)N)cnc(OCC(F)(F)F)c4cn3)nc21', 'MAP4K1 (HPK1) (Homo sapiens (Human))', 'IC50', '1.1 to 10 nM'),
  ('CC1(C)Cc2nc(Nc3cc4c(C(C)(C)N)cnc(OC5(C)CC5)c4cn3)ccc2C(=O)O1', 'MAP4K1 (HPK1) (Homo sapiens (Human))', 'IC50', '0.31 to 1 nM'),
  ('COc1ncc(C(C)(C)N)c2cc(Nc3ccc4c(n3)[C@@H](C)C(C)(C)OC4=O)ncc12', 'MAP4K1 (HPK1) (Homo sapiens (Human))', 'IC50', '< 0.3 nM'),
  ('C[C@@H]1OC(=O)c2ccc(Nc3cc4c([C@](C)(N)CO)cnc(OC5CC5)c4cn3)nc2[C@H]1C (single isomer, unassigned)', 'MAP4K1 (HPK1) (Homo sapiens (Human))', 'IC50', '> 10 nM'),
  ('C[C@@H]1OC(=O)c2ccc(Nc3cc4c(C(C)(C)N)cnc(OC5CC(F)(F)C5)c4cn3)nc2[C@H]1C', 'MAP4K1 (HPK1) (Homo sapiens (Human))', 'IC50', '< 0.3 nM'),
  ('C[C@@H]1c2nc(Nc3cc4c([C@](C)(N)C5CC5)cnc(OC5CC5)c4cn3)ccc2C(=O)O[C@@H]1C (single isomer, unassigned)', 'MAP4K1 (HPK1) (Homo sapiens (Human))', 'IC50', '< 0.3 nM'),
  ('CC[C@](C)(N)c1cnc(OC)c2cnc(Nc3ccc4c(n3)CC(C)(C)OC4=O)cc12 (single isomer, unassigned)', 'MAP4K1 (HPK1) (Homo sapiens (Human))', 'IC50', '0.31 to 1 nM'),
  ('CCOc1ncc(C(C)(C)N)c2cc(Nc3ccc4c(n3)C[C@@H](C)OC4=O)ncc12 (single isomer, unassigned)', 'MAP4K1 (HPK1) (Homo sapiens (Human))', 'IC50', '0.31 to 1 nM'),
  ('C[C@@H]1c2nc(Nc3cc4c(C(C)(C)N)cnc(NC5CC5)c4cn3)ccc2C(=O)OC1(C)C', 'MAP4K1 (HPK1) (Homo sapiens (Human))', 'IC50', '< 0.3 nM'),
  ('COc1ncc(C(C)(C)N)c2cc(Nc3ccc4c(n3)[C@H](C)[C@H](C)OC4=O)ncc12 (single isomer, unassigned)', 'MAP4K1 (HPK1) (Homo sapiens (Human))', 'IC50', '< 0.3 nM'),
  ('CC[C@](C)(N)c1cnc(OC2CC2)c2cnc(Nc3ccc4c(n3)[C@@H](C)[C@H](C)OC4=O)cc12', 'MAP4K1 (HPK1) (Homo sapiens (Human))', 'IC50', '0.31 to 1 nM');
